# tested_system: T1, hMPV PostF trimer (human metapneumovirus, strain B2)
# T1 construct: also called MPV PostF (dPFv1)
# procedure_summary: BLI, mAb on anti-human Fc sensor
Provide the recorded Octet binding response for the entries that follow.
One number for each entry, in nm.

Guide cases for Octet binding response, answers given:
• M2E07 (antibody, V domains shown, IgG) VH: EVQLVESGGGLVQTGGSLRLACAASGFTFSSYAMSWVRQAPGKGLEWVSTITESGDDAYYADSVKGRLTISRDNSKNTLFLHLNGLRSEDTARYYCAKDMGLYKSSWYGNFFYYYYMDVWGEGTTVTVSS VL: QSALTQPASVSGSPGQSITISCTGSSSNIGSFDLISWYQQHPGKAPKFIIYEGDKRPSGVSYRFSGSKSGSTASLTISGLQAEDEAYYYCCSYARSRTLVFGGGTKVTVL = 0.0137
• M2A03 (antibody, V domains shown, IgG) VH: QLQLQESGPGLVKPSETLSLTCSVSGGSISSSSNSWTWIRQPPGKGLEWIATIFYFGSTYYNPSLRSRVAISVDTSENQFSLKLTSVTAADTAVYFCARHILSSSGVSGWLDPWGQGTLVTVSS VL: SYELTQPPSVSVSPGQTASITCSGEKLGSKYAHWYQQKPGRSPVLVIYQDTKRPSGIPERFSGSNSGSTATLTISGTQAMDEADYYCQAWDSSSFVFGTGTTVTVL = 0.477

Next up:
Which Octet binding response is listed for M2B06 (antibody, V domains shown, IgG) VH: QVQLQESGPRLVKPSGTLSLTCAVSGASITSSHWWTWVRQPPGKGLEWIGRIFHSGSTNYNPSLKSRVTISLDKSRNQFSLTLTSVTAADTAVYYCARDDQIVVMPAGFDRWGQGALVIVSS VL: DIQMTQSPSSLSASVGDRVTITCRASQTISSYLNWYQQTPGKAPNLLIYGASRLQGGVPSRFSGSGSGTDFTLTISSLQPEDFAIYFCQQSKSIPYTFGQGTRLEIK ? 0.436
